All values here come from patent US7763615B2.

System: MB231
Experiment: cells
Format: cell-based
Conditions: Homo sapiens, 48 h, read-out: LC50
Measured CC50, listed per entry for reference.
// units = nM; emit number, no label

Completed entries (count: 4):
>  <MOLECULE>
COc1ccc2[nH]c3c(c2c1)CCN[C@]31CS[C@@H]2c3c(OC(C)=O)c(C)c4c(c3[C@H](COCC1=O)N1C2[C@H]2c3c(cc(C)c(OC)c3O)C[C@@H]([C@@H]1O)N2C)OCO4 (some centres unmarked)

>  <CC50 (nM)>
12.7

$$$$
>  <MOLECULE>
COc1c(C)cc2c(c1O)[C@@H]1C3[C@@H]4SC[C@]5(C(=O)COC[C@@H](c6c7c(c(C)c(OC(C)=O)c64)OCO7)N3[C@@H](O)[C@H](C2)N1C)c1[nH]c2ccc(O)cc2c1CCN5C (some centres unmarked)

>  <CC50 (nM)>
12.7

$$$$
>  <MOLECULE>
COc1c(C)cc2c(c1O)[C@@H]1C3[C@@H]4SC[C@]5(NCCc6c5[nH]c5ccc(O)cc65)C(=O)COC[C@@H](c5c6c(c(C)c(OC(C)=O)c54)OCO6)N3[C@@H](O)[C@H](C2)N1C (some centres unmarked)

>  <CC50 (nM)>
13

$$$$
>  <MOLECULE>
COc1c(C)cc2c(c1O)[C@@H]1C3[C@@H]4SC[C@]5(NCCc6c5[nH]c5ccccc65)C(=O)COC[C@@H](c5c6c(c(C)c(OC(C)=O)c54)OCO6)N3[C@@H](O)[C@H](C2)N1C (some centres unmarked)

>  <CC50 (nM)>
13.2

$$$$

Prompt line: Given the molecule COc1c(C)cc2c(c1O)[C@@H]1C3[C@@H]4SC[C@]5(NCCc6c5[nH]c5ccc(OCc7ccccc7)cc65)C(=O)COC[C@@H](c5c6c(c(C)c(OC(C)=O)c54)OCO6)N3[C@@H](O)[C@H](C2)N1C (some centres unmarked) , what is its reported CC50?
Response line: 116

---

Measured CC50, listed per entry for reference.
Tested on: A549
Test: cells
Type: cell-based
Settings: Homo sapiens, A549, 48 h, read-out: LC50, A549, 48 hours exposure, SRB
// units = nM; emit number, no label

Prompt line: Given the compound COc1ccc2[nH]c3c(c2c1)CCN[C@]31CS[C@@H]2c3c(OC(C)=O)c(C)c4c(c3[C@H](COCC1=O)N1C2[C@H]2c3c(cc(C)c(OC)c3O)C[C@@H]([C@@H]1O)N2C)OCO4 (stereo partly shown) [Compound 27] , what is its reported CC50?
Response line: 6.37

Prompt line: Given the compound COc1c(C)cc2c(c1O)[C@@H]1C3[C@@H]4SC[C@]5(NCCc6c5[nH]c5ccccc65)C(=O)COC[C@@H](c5c6c(c(C)c(OC(=O)C(F)(F)C(F)(F)C(F)(F)F)c54)OCO6)N3[C@@H](C#N)[C@H](C2)N1C (stereo partly shown) [Compound 51] , what is its reported CC50?
Response line: 1290

Prompt line: Given the compound COc1c(C)cc2c(c1O)[C@@H]1C3[C@@H]4SC[C@]5(NCCc6c5[nH]c5ccc(C)cc65)C(=O)COC[C@@H](c5c6c(c(C)c(OC(C)=O)c54)OCO6)N3[C@@H](O)[C@H](C2)N1C (stereo partly shown) [Compound 30] , what is its reported CC50?
Response line: 1.04

Prompt line: Given the compound COc1c(C)cc2c(c1O)[C@@H]1C3[C@@H]4SC[C@]5(NCCc6c5[nH]c5c(C)cccc65)C(=O)COC[C@@H](c5c6c(c(C)c(OC(C)=O)c54)OCO6)N3[C@@H](O)[C@H](C2)N1C (stereo partly shown) [Compound 36] , what is its reported CC50?
Response line: 90.9
